# Test system: OVCAR-3 ovarian
# ASSAY_METHOD_TEXT: NCI-60 one-dose screen, 48 h
# CONDITIONS_USED: 10 µM unless noted
The panel holds about 83,000 compounds, 20% with a hit somewhere; the sample as a whole holds those more often. The source made the active and inactive calls. How the source made its calls: active means growth percent below 10; inactive means the rest.
Outcomes: 1.0 for active, 0.0 for inactive

[[record]]
compound = "O=C1C=CC(=Nc2cc(Br)c(O)c(Br)c2)C=C1"
cat = 0.0

[[record]]
compound = "O=C1C2=C(CCN(Cc3ccccc3)C2)N2CCN=C2N1Cc1ccc(F)cc1F"
cat = 0.0

[[record]]
compound = "CCCCOC(=O)c1ccc(NC(=O)C(C)N2CCOCC2)cc1 (stereo unspecified)"
cat = 0.0

[[record]]
compound = "CC12CC(C#N)CCC1O2 (stereo unspecified)"
cat = 0.0

[[record]]
compound = "O=C(NCCOCCOCCOCCNC(=O)c1cc2c(o1)C(=O)c1ccccc1C2=O)NC12CC3CC(CC(C3)C1)C2"
cat = 1.0

[[record]]
compound = "CSc1ccc(Cl)c(C(=O)Nc2sccc2C(N)=O)c1"
cat = 0.0


###

# Test system: HCC-2998 colon
# ASSAY_METHOD_TEXT: NCI-60 one-dose screen, 48 h (100 = growth as untreated, 0 = no growth, -100 = all killed)
# CONDITIONS_USED: 10 µM unless noted
# Protocol: Growth inhibition of the HCC-2998 human tumor cell line is measured as a screen for anti-cancer activity. Cells are grown in 96 well plates and exposed to the test compound for 48 hours. Compounds are tested at a single concentration, which is 10^-5 M for most compounds. The reported endpoint is percent growth (GI% or GIPRCNT), where numbers from 0 - 100% represent growth inhibition, and numbers from -100% - 0 represent cell death. For example, a value of 40 represents 60% growth inhibition. […]
About 83,000 compounds went through this panel and 20% of them were active in at least one assay; those are over-represented in the sample as a whole.
OBSERVED_PROPERTY: growth (%)

[[record]]
compound = "O=C(NCOC(O)C(Cl)(Cl)Cl)NCOC(O)C(Cl)(Cl)Cl (centres undefined)"
observed_property = "growth"
u = "%"
assay_result = 118

[[record]]
compound = "CCCCN(Cc1ccc(C(=O)NO)cc1)C(=O)Nc1ccc(OCCCCCCCCCn2cc(CCCCC(=O)N[C@H](C(=O)N3C[C@H](O)C[C@H]3C(=O)NCc3ccc(-c4scnc4C)cc3)C(C)(C)C)nn2)cc1"
observed_property = "growth"
u = "%"
assay_result = 57.2

[[record]]
compound = "CCN(CC)S(=O)(=O)c1ccc(O)c(NC(=O)c2[nH]c(C)c(C(C)=O)c2CCc2ccc(Cl)cc2)c1"
observed_property = "growth"
u = "%"
assay_result = 76.3

[[record]]
compound = "Cc1nc(Nc2cccc(NC(=O)Nc3ccc(Cl)cc3)c2)c2ccccc2n1"
observed_property = "growth"
u = "%"
assay_result = 106

[[record]]
compound = "O=C(O)c1ccc(CO)o1"
observed_property = "growth"
u = "%"
assay_result = 111

[[record]]
compound = "O=C1CCC(N2C(=O)c3cccc(NCCCC4CCN(CCNC(=O)c5cc6c(o5)C(=O)c5ccccc5C6=O)CC4)c3C2=O)C(=O)N1 (centres undefined)"
observed_property = "growth"
u = "%"
assay_result = -96

[[record]]
compound = "CN(C)c1ccc(/C=C/c2c(F)cccc2F)cc1"
observed_property = "growth"
u = "%"
assay_result = 95.1

[[record]]
compound = "CCOC(=O)c1sc2ccc(NCc3nc[nH]c3C)cc2c1NC(=O)c1cc(OC)c(OC)c(OC)c1"
observed_property = "growth"
u = "%"
assay_result = 106

[[record]]
compound = "CC(=O)Nc1nccs1"
observed_property = "growth"
u = "%"
assay_result = 102

